molecular target: HLA-DRB1*01:01 (Homo sapiens, UniProt P01903+P01911, A100R/D57E/F55L/F60I/F76Y/I96L/L162R/M171V/P40L/Q125E/R42F/V115G/Y59C); construct: EBV transformed homozygous cell lines were used as sources of MHC molecules; endogenous in cells; host or cells: EBV transformed homozygous cell lines; experiment: HLA class II peptide binding, inhibition of radiolabeled peptide binding to purified MHC; conditions: citrullinated 15-mer peptide (X = citrulline); purified HLA-DRB1*01:01; read-out: DRB1*01:01 binding capacity, Cit peptide (IC50 nM)
Square brackets hold non-standard residues; d marks the D form. Peptide text beside a SMILES is read from it. Cit = NC(=O)NCCC[C@H](N)C(=O)O

Compound	IC50
C[C@H](NC(=O)CNC(=O)[C@H](C)NC(=O)[C@H](CCC(=O)O)NC(=O)CNC(=O)[C@H](CCCNC(N)=O)NC(=O)[C@H](CC(=O)O)NC(=O)CNC(=O)[C@H](CCC(N)=O)NC(=O)[C@H](CCCCN)NC(=O)CNC(=O)[C@@H](NC(=O)[C@@H]1CCCN1)[C@@H](C)O)C(=O)N[C@@H](CCC(N)=O)C(=O)NCC(=O)O [PTGKQGDXGEAGAQG] (H-PTGKQGD[Cit]GEAGAQG-OH; N-terminus and C-terminus assumed)	> 40000 nM
